Catalogue of viability, T/C readings, one per entry.
tested on: 556581-035-R-J1-PDC complex spheroid growth; experiment: Anticancer human tumor 556581-035-R-J1-PDC patient-derived ovarian carcinoma cell line growth inhibition [Asc]; settings: second compound 3.16 µM; first compound 1 µM; hits give low values;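 also: spheroids exposed to agents for 7 days before viability read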
recorded-endpoint: viability, T/C (%)

{"columns": ["compound", "recorded-number"],
 "data": [
  ["C=CC(=O)N1CCN(c2nc(=O)n(-c3c(C)ccnc3C(C)C)c3nc(-c4c(O)cccc4F)c(F)cc23)C(C)C1 (stereo not drawn) + Cc1c(S(C)(=O)=O)c(-c2cc(F)cc(N3CCN(c4ccc(NS(=O)(=O)c5ccc(NC(CCN6CCC(C(=O)OCCCP(=O)(O)O)CC6)CSc6ccccc6)c(S(=O)(=O)C(F)(F)F)c5)cc4)CC3)c2)c(-c2ccc(Cl)cc2)n1C(C)C", 72],
  ["O=C(c1cc(Cc2n[nH]c(=O)c3ccccc23)ccc1F)N1CCN(C(=O)C2CC2)CC1 + Cc1c(S(C)(=O)=O)c(-c2cc(F)cc(N3CCN(c4ccc(NS(=O)(=O)c5ccc(NC(CCN6CCC(C(=O)OCCCP(=O)(O)O)CC6)CSc6ccccc6)c(S(=O)(=O)C(F)(F)F)c5)cc4)CC3)c2)c(-c2ccc(Cl)cc2)n1C(C)C", 65.8],
  ["COc1c(OCCCN2CCOCC2)ccc2c3n(c(=NC(=O)c4cnc(N)nc4)nc12)CCN3 + Cc1c(S(C)(=O)=O)c(-c2cc(F)cc(N3CCN(c4ccc(NS(=O)(=O)c5ccc(NC(CCN6CCC(C(=O)OCCCP(=O)(O)O)CC6)CSc6ccccc6)c(S(=O)(=O)C(F)(F)F)c5)cc4)CC3)c2)c(-c2ccc(Cl)cc2)n1C(C)C", 9.13]
]}

Reference source: PubChem BioAssay AID1963450
